read-out: matrix metalloproteinase-3 (MMP3), MMP3 (gene 4314); assay: LTEA_HepaRG_MMP3: Life Technologies and Expression Analysis (LTEA) Assay for matrix metalloproteinase-3 (MMP3) using HepaRG (AID 2283519); conditions: mRNA level, 48 h; actives raise or lower the signal
The source made the active and inactive calls. The calls were made as follows: active = hit-call score of the fitted dose curve at least 0.9, where 1 is the maximum; inactive = score below 0.9.
Choose the fitting class; nothing outside yes (1) for active, no (0) for inactive is accepted.

O=C(N[C@@H](Cc1ccccc1)[C@@H](O)C(=O)N1C[C@@H](O)[C@@H](O)C1)c1cc2cc(Cl)ccc2[nH]1 ... no (0)
CC1=C(/C=C/C(C)=C/C=C/C(C)=C/CO)C(C)(C)CCC1 ... yes (1)
Cc1ccc(N(C)C)cc1 ... no (0)
CC1(C)NC(=O)NC1=O ... no (0)
O=c1c(O)c(-c2ccc(O)c(O)c2)oc2cc(O)cc(O)c12 ... no (0)

Tell me the recorded outcome of this test for CC1(C)CC(N=C=O)CC(C)(CN=C=O)C1 (stereo not drawn) . no (0)

Try this compound too: "CCCCCCCCCCCCCCCC" no (0)

Try this compound too: "C[C@]12C=CC(=O)C=C1CC[C@@H]1[C@@H]2C(=O)C[C@@]2(C)[C@H]1CC[C@]2(O)C(=O)CO" no (0)

Try this compound too: "CCCCN(CCCC)CCCC" no (0)

Try this compound too: "Cc1nc(C)nc(N2C[C@@H](C)N(c3ccnc([C@@H](C)O)n3)[C@@H](C)C2)n1" yes (1)

Try this compound too: "Cc1ccc(C)c(C)c1" no (0)

Try this compound too: "CCCCCCOCCO" no (0)

Try this compound too: "CCOC(=O)C(C)(C)Oc1ccc(Cl)cc1" no (0)

Try this compound too: COCCOC[C@H](CC1(C(=O)NC2CCC(C(=O)O)CC2)CCCC1)C(=O)Oc1ccc2c(c1)CCC2 (stereo partly drawn) no (0)

Try this compound too: "CCOc1ccc2c(c1)C(C)=CC(C)(C)N2" no (0)

Try this compound too: "Oc1ccc2ccccc2c1N=Nc1ccccc1" no (0)

Try this compound too: "CCCCCCC(=O)OCC" no (0)

----------
read-out: Pro-epidermal growth factor (Homo sapiens); assay: LTEA_HepaRG_EGF: Life Technologies and Expression Analysis (LTEA) Assay for Epidermal growth factor (EGF) using HepaRG (AID 2283489); settings: mRNA level, 48 h; actives raise or lower the signal
The source made the active and inactive calls. How the source made its calls: active means hit-call score of the fitted dose curve at least 0.9, where 1 is the maximum; inactive means score below 0.9.
Choose the fitting class; nothing outside active, inactive is accepted.

Some solved entries appear below for comparison.
CCCCCCCCCCCCCO ... inactive
COc1cc(S(=O)(=O)O)c(C)cc1N=Nc1c(O)ccc2cc(S(=O)(=O)O)ccc12 ... inactive
CCCCCCOCCO ... inactive
CC1=C(/C=C/C(C)=C/C=C/C(C)=C/CO)C(C)(C)CCC1 ... active
COc1cc(C=O)ccc1O ... inactive
CC(CO)OC(C)CO (configuration not stated) (tested in a mixture with another compound) ... inactive

Tell me the recorded outcome of this test for "CN[C@H]1CC[C@@H](c2ccc(Cl)c(Cl)c2)c2ccc(S(N)(=O)=O)cc21" . inactive

----------
target: Bile acid receptor (Homo sapiens) (UniProt Q96RI1); test: ATG_FXR_TRANS: Attagene TRANS-FACTORIAL HepG2 Assay for Farnesoid X Receptor (FXR) (AID 2282979); conditions: HepG2 Attagene TRANS FXR-GAL4 reporter transcription;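 also: hits raise reporter mRNA above DMSO so AC50 marks FXR activation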
Sequence (Q96RI1 whole entry, looked up, the tested form may be a part): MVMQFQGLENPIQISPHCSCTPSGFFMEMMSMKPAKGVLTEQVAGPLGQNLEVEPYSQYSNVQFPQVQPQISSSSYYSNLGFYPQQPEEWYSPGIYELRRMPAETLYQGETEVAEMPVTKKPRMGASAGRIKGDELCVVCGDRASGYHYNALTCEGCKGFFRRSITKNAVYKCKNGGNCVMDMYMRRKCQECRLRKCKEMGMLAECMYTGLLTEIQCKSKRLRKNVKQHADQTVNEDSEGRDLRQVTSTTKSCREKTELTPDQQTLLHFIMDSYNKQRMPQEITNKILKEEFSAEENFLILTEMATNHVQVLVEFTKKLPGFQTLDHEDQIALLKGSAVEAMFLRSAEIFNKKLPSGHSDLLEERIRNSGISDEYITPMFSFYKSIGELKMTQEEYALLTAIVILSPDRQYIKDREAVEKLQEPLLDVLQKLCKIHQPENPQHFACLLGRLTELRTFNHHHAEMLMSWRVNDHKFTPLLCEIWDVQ
Results filed as inconclusive are left out. Calls of active or inactive are those of the source. The calls were made as follows: active = hit-call score of the fitted dose curve at least 0.9, where 1 is the maximum; inconclusive = response in the unintended direction; inactive = score below 0.9.
attributeMeasured: outcome

COc1cc(C=O)ccc1O ... inactive
CCc1c(C(=O)NN2CCCCC2)nn(-c2ccc(Cl)cc2Cl)c1-c1ccc(Br)cc1 ... inactive
C[Si]1(C)O[Si](C)(C)O[Si](C)(C)O[Si](C)(C)O1 ... inactive
Nc1ccc(S(=O)(=O)c2ccc(N)cc2)cc1 ... inactive
Cc1cc(=O)[nH]c(=S)[nH]1 ... inactive

Any idea what outcome was measured for "COc1cc(S(=O)(=O)O)c(C)cc1N=Nc1c(O)ccc2cc(S(=O)(=O)O)ccc12" ? inactive

Try this molecule too: "COCCOCCOC" inactive

Try this molecule too: "CN[C@H]1CC[C@@H](c2ccc(Cl)c(Cl)c2)c2ccc(S(N)(=O)=O)cc21" inactive

Try this molecule too: "CN1CCN(Cc2cc(-c3ccc4[nH]c(=O)oc4c3)co2)[C@@H](c2ccc(F)cc2)C1" inactive

Try this molecule too: "Cc1c(C(=O)O)c(O)cc2c1C(=O)c1c(O)c([C@@H]3O[C@H](CO)[C@@H](O)[C@H](O)[C@H]3O)c(O)c(O)c1C2=O" inactive

Try this molecule too: CC1(C)CC(N=C=O)CC(C)(CN=C=O)C1 (configuration not stated) inactive

Try this molecule too: "NC(=O)Cn1c(=O)cc(CCN2CCN(c3nccc4sccc34)CC2)c2ccc(F)cc21" inactive

Try this molecule too: CC(CO)OC(C)CO (configuration not stated) (tested in a mixture with another compound) inactive

Try this molecule too: "C=CCOC(=O)c1ccccc1C(=O)OCC=C" inactive

Try this molecule too: "Nc1nc(N)c2nc(CNc3ccc(C(=O)N[C@@H](CCC(=O)O)C(=O)O)cc3)cnc2n1" inactive

Try this molecule too: "CCOC(=O)C(C)(C)Oc1ccc(Cl)cc1" inactive

Try this molecule too: "Cc1ccccc1Cl" inactive

Ref: PubChem BioAssay (EPA / NIEHS)
